The entries below come with measured Z score values attached.
- Tested on: Plasmodium falciparum
- runDescription: Primary screen in NF54 nanoGlo assay, in single point, at 2uM, 72h; a lower Z score goes with more inhibition
- Type: functional, Erythrocyte
- conditionParameters: timepoint 72 hour
Out of some 150,000 compounds screened, about 540 (0.36%) showed an effect of 50% or more. The full list was thinned out, with strong results kept by preference.
measurementType: Z score

{"molecule": "Cc1nc(C)c(CC(=O)N2CCN(c3ccccc3)CC2)c(=O)[nH]1", "measuredResult": 3.87}
{"molecule": "Cc1nn2c(-c3ccc(-c4ccccc4)cc3)ccnc2c1Cl", "measuredResult": 1.64}
{"molecule": "COc1ccc(-c2cc3n(n2)C[C@@](C)(C(=O)NCc2ccccc2OC)N(c2ccc(C)cc2)C3=O)cc1", "measuredResult": 0.55}
{"molecule": "COc1ccc(-c2cc3n(n2)C[C@@](C)(C(=O)NCc2ccccc2)N(Cc2ccccc2Cl)C3=O)cc1", "measuredResult": -2.69}
{"molecule": "CCOc1cccc2c1OC[C@@H](C(=O)N1CCCS1(=O)=O)C2", "measuredResult": 1.2}
{"molecule": "CN(CC(=O)NCCCc1ccco1)c1nnc(N2CCCC2=O)s1", "measuredResult": 2.07}
{"molecule": "CC1(C#N)CCN(Cc2cc(C(C)(C)C)[nH]n2)CC1", "measuredResult": -0.56}
{"molecule": "CCc1noc(Cc2c(C)nn(-c3ccccc3)c2C)n1", "measuredResult": 0.89}
{"molecule": "O=C(C1CCC1c1ccc(F)cc1)N1CCCC(c2nc3ccc(F)cc3o2)C1 (stereo unspecified)", "measuredResult": 1.06}
{"molecule": "CCN(C)C1(CNC(=O)c2ccc(-c3cc(F)ccc3O)cc2)CCCC1", "measuredResult": -0.99}
{"molecule": "Cc1nc(-c2ccnc(NCc3cnc(N(C)C)nc3)c2)n[nH]1", "measuredResult": -0.63}
{"molecule": "Cc1noc(C)c1N(C)C(=O)Nc1cccnc1", "measuredResult": 0.36}
{"molecule": "CC(=O)Nc1ccnc(Cc2ccccc2)n1", "measuredResult": 1.29}
{"molecule": "CCn1c(-n2nc(C)nc2[C@H]2CCS(=O)(=O)C2)nc2ccccc21", "measuredResult": -0.76}
{"molecule": "O=C(Nc1cccc(S(=O)(=O)NC2=NCCC2)c1)c1cc(Cl)c2c(c1)OCCCO2", "measuredResult": 1.51}
{"molecule": "O=S(=O)(c1ccc(Cl)s1)N1CCc2nc(-c3ccc(Cl)cc3)ncc2C1", "measuredResult": 1.78}
{"molecule": "CCc1ccc(-c2cc3n(n2)C[C@@](C)(C(=O)NC2CCCCC2)N(c2cc(C)cc(C)c2)C3=O)cc1", "measuredResult": -11.34}
{"molecule": "O=S(=O)(c1cccs1)N1CC[C@H](n2ccnn2)C1", "measuredResult": 1.54}
{"molecule": "COc1ccc(-c2cc3n(n2)C[C@@](C)(C(=O)NCc2ccccc2OC)N(c2cc(C)cc(C)c2)C3=O)cc1", "measuredResult": -1.43}
{"molecule": "COC(C)(C)CCC[C@H](C)CCNCC(C)(C)N1CCOCC1", "measuredResult": -0.18}
{"molecule": "CC(CNC(=O)C(=O)NC(C)CCc1ccccc1)Cc1ccccc1 (stereo unspecified)", "measuredResult": 1.26}
{"molecule": "Cc1cccc([C@@H](NC(=O)CC2OCCCO2)C(F)(F)F)c1", "measuredResult": -0.38}
{"molecule": "CCc1nccc(-c2c(-c3ccccc3)ncn2CCN2CCOCC2)n1", "measuredResult": 0.83}
{"molecule": "OC1=Nc2c(ncn2-c2cccnc2)[C@@H](c2ccc(F)c(F)c2)C1", "measuredResult": -0.05}
{"molecule": "Cc1ccc(CNC(=O)[C@]2(C)Cn3nc(C)cc3C(=O)N2c2ccc3c(c2)OCCO3)cc1", "measuredResult": 0.18}
{"molecule": "CC(C)(C)c1cc(CN2CCC3(CC2)[C@H](O)C[C@@H]3O)n[nH]1", "measuredResult": 0.15}
{"molecule": "COc1ccc(-c2cc3n(n2)C[C@@](C)(C(=O)NCc2ccccc2)N(Cc2ccc4c(c2)OCO4)C3=O)cc1", "measuredResult": -8.23}
{"molecule": "O=C(NCCc1ccc(Cl)cc1)c1ccc(Cn2c(=O)[nH]c3ccccc3c2=O)cc1", "measuredResult": 1.68}
{"molecule": "Cc1ccc(C)c(Cn2c(C(=O)Nc3ccccc3)cc3cc(NC(=O)c4ccco4)ccc32)c1", "measuredResult": -0.19}
{"molecule": "CC(C)(C)c1cc(CN2CCN(S(N)(=O)=O)CC2)n[nH]1", "measuredResult": -0.86}
{"molecule": "O=C(Nc1ccc(Cc2ccc(NC(=O)c3ccc(Br)cc3)c(O)c2)cc1O)c1ccc(Br)cc1", "measuredResult": -1}
{"molecule": "Cc1csc(S(=O)(=O)N2CC[C@H](n3cccn3)C2)c1", "measuredResult": 1.47}
{"molecule": "CCc1nnc(NCC(C)(C)CCS(C)(=O)=O)c(C#N)c1CC", "measuredResult": -0.31}
{"molecule": "COc1ccc(CN2C(=O)c3cc(-c4ccc(OC)cc4)nn3C[C@@]2(C)C(=O)NCc2ccccc2)cc1", "measuredResult": -0.96}
{"molecule": "COc1ccc(-c2cc3n(n2)C[C@@](C)(C(=O)NCc2ccccc2OC)N(c2cccc(OC)c2)C3=O)cc1", "measuredResult": -8.04}
{"molecule": "c1cc(-c2ccc(N3CCNCC3)nn2)ccn1", "measuredResult": -1.03}
{"molecule": "Cc1ccc(Nc2ccc(N3CCNCC3)nn2)nc1", "measuredResult": -6.37}
{"molecule": "Cc1nn(-c2nc3ccccc3[nH]2)c2c1[C@@H](c1ccc(Cl)c(Cl)c1)CC(=O)N2", "measuredResult": -1.74}
{"molecule": "CN(CC(=O)NCc1ccco1)c1nnc(N2CCCC2=O)s1", "measuredResult": -0.5}
{"molecule": "CCN(C)C1(CNC(=O)c2cccc(-c3ncc(F)c(NC)n3)c2)CCCC1", "measuredResult": -0.53}
{"molecule": "CCc1ccc(-c2cc3n(n2)C[C@@](C)(C(=O)NC2CCCCCC2)N(c2ccc(F)cc2)C3=O)cc1", "measuredResult": 0.02}
